- targetOrTestSystem: T1, murine IL-11 (mouse, UniProt P47873 22-199)
- T1 sequence: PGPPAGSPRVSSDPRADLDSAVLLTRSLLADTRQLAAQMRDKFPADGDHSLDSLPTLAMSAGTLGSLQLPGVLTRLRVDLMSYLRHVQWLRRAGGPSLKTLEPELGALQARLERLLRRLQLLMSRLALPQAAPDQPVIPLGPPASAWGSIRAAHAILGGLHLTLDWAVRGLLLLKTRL
- assayExplanation: cell-based or functional assay
measuredAttribute: IC50, RGA 2 (nM)
Supply the numeric figure in nM, leaving out any unit text.

The cases that follow already have their IC50, RGA 2 on record.
TPP-31309 (antibody, IgG4, V domains shown) VH: EVQLLESGGGLVQPGGSLRLSCAASGFTFSHYDMNWLRQAPGKGLEWVGVISYDSSNKFYADFVKGRFTISRDNSKNTLYLQMNSLRAEDTAVYYCARTPGSHFDYWGQGTLVTVSS VL: QSVLTQPPSASGTPGQRVTISCSGSSSNIGNNAVNWYQQLPGTAPKLLIYYDDLLPSGVPDRFSGSKSGTSASLAISGLRSEDEADYYCSAWDDSLQGVVFGGGTKLTVL : 68
TPP-31299 (antibody, IgG4, V domains shown) VH: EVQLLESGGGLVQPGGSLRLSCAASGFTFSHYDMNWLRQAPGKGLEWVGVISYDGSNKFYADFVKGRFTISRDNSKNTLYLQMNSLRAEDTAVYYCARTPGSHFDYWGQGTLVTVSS VL: QSVLTQPPSASGTPGQRVTISCSGSSSNIGNNAVNWYQQLPGTAPKLLIYYDDLLPSGVPDRFSGSKSGTSASLAISGLRSEDEADYYCSAWDDSLNAVVFGGGTKLTVL : 14
TPP-31294 (antibody, IgG4, V domains shown, hIgG4 SPLE, lambda) VH: EVQLLESGGGLVQPGGSLRLSCAASGFTFSHYDMNWLRQAPGKGLEWVAVISYDGSNKFYADFVKGRFTISRDNSKNTLYLQMNSLRAEDTAVYYCARTPGSHFDYWGQGTLVTVSS VL: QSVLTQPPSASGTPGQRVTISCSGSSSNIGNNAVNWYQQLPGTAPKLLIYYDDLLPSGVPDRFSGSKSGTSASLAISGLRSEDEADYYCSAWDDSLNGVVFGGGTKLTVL : 28

Kindly consider the entry below.
stdin: Let me know recorded IC50, RGA 2 for TPP-31288 (antibody, IgG4, V domains shown) VH: EVQLLESGGGVVQPGGSLRLSCAASGFTFSHYDMNWLRQAPGKGLEWVGVISYDGSNKFYADFVKGRFTISRDNSKNTLYLQMNSLRAEDTAVYYCARTPGSHFDYWGQGTLVTVSS VL: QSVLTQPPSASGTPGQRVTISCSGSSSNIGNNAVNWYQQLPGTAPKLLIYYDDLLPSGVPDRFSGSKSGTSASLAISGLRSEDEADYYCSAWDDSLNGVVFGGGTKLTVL , thanks.
stdout: 23
